These measurements were taken from patent US20230257372A1.

assay-system: human recombinant HDAC6 (Homo sapiens)
Construct: purchased Calbiochem Inc. 382180
run-description: HDAC6 enzyme activity inhibition (HDAC Fluorimetric Drug Discovery Kit)
Assay type: biochemical
setup-conditions: HDAC1 IC50 / HDAC6 IC50
Experimental: An experiment was conducted to identify the selectivity of the compound represented by formula I of the present invention to HDAC6 through an experiment on HDAC1 and HDAC6 enzyme activity inhibition. […]
quantity: HDAC6 selectivity (fold)
Numbers only here, please. The scale is fold.

Reference set (5 entries):
compound	output-unit	readout-value
Fc1cc(-c2nnc(C(F)F)o2)ccc1Cn1cc(-c2ccc(CN3CCC3)cc2)nn1 [Compound 4466]	fold	6944
CC(C)(C)OC(=O)N1CCC(c2cccc(-c3cn(Cc4ccc(-c5nnc(C(F)F)o5)cn4)nn3)c2)CC1 [Compound 4001]	fold	296
CN1C[C@@H]2C[C@H]1CN2c1cccc(-c2cn(Cc3ccc(-c4nnc(C(F)F)o4)cc3)nn2)c1 [Compound 4320]	fold	719
FC(F)c1nnc(-c2ccc(Cn3cc(-c4ccnc5[nH]ccc45)nn3)nc2)o1 [Compound 3840]	fold	5681
CC(C)N1CCC(c2cccc(-c3cn(Cc4ccc(-c5nnc(C(F)F)o5)cc4F)nn3)c2)CC1 [Compound 4292]	fold	967

Kindly note the recorded HDAC6 selectivity (fold) for CC(C)N1CCC(c2cn(Cc3ccc(-c4nnc(C(F)F)o4)cn3)nn2)CC1 [Compound 3808] , which is 143

Kindly note the recorded HDAC6 selectivity (fold) for CC(C)N1CCN(Cc2ccc(-c3cn(Cc4ccc(-c5nnc(C(F)F)o5)cc4F)nn3)cc2)CC1 [Compound 4475] , which is 1269

====

assay-system: human recombinant HDAC6 (Homo sapiens, UniProt Q9UBN7)
Construct: purchased Calbiochem Inc. 382180
Sequence (Q9UBN7 1-1215): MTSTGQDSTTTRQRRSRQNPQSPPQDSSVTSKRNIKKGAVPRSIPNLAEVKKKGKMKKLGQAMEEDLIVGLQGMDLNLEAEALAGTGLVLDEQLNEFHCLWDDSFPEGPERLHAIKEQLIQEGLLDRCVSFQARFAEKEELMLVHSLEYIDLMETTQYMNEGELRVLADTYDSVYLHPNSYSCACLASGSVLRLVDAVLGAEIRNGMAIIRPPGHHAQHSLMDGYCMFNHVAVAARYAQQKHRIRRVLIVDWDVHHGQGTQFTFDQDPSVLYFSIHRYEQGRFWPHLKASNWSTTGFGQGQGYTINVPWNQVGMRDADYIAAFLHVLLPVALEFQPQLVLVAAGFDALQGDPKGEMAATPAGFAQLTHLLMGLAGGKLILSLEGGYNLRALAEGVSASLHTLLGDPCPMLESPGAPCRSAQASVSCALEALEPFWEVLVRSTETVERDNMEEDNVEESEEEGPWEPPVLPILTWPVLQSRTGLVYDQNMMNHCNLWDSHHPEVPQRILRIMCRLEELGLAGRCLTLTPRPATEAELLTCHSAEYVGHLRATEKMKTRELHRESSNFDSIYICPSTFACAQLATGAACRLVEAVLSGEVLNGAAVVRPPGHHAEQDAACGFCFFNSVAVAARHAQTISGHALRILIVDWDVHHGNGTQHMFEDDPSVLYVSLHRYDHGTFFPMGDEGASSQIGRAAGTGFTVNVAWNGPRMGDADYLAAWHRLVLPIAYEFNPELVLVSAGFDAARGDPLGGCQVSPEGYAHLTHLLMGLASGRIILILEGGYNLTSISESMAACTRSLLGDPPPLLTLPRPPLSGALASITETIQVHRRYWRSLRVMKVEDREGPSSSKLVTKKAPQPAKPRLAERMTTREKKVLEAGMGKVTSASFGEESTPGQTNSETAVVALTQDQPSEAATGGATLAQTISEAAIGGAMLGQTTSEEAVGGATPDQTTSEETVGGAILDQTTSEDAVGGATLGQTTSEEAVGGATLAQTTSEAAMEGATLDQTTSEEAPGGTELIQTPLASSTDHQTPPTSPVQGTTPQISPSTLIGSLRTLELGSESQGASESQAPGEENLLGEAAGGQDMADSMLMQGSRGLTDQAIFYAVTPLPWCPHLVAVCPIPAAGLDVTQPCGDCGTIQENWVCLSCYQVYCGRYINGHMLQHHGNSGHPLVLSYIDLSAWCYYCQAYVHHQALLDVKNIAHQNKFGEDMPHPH
run-description: HDAC6 enzyme activity inhibition (HDAC Fluorimetric Drug Discovery Kit)
Assay type: biochemical
setup-conditions: human recombinant HDAC6; IC50 calculated with GraphPad Prism
pIC50: −log10 of the molar value.
Decision: pIC50 >= 7 yields satisfied, all other cases yield not satisfied.

Some entries whose results are on file:
CCC(=O)N1CC(c2cn(Cc3ccc(-c4nnc(C(F)F)o4)cn3)nn2)C1 not satisfied
Fc1cccnc1-c1cn(Cc2ccc(-c3nnc(C(F)F)o3)cn2)nn1 satisfied
FC(F)c1nnc(-c2ccc(Cn3cc(-c4cccc5[nH]cc(CN6CCOCC6)c45)nn3)nc2)o1 not satisfied

stdin: Kindly determine if pIC50 recorded for `C[C@@H]1CN(c2cccc(-c3cn(Cc4ccc(-c5nnc(C(F)F)o5)cc4F)nn3)c2)C[C@H](C)N1C` is above or exactly 7.
stdout: satisfied

stdin: Kindly determine if pIC50 recorded for `CN(C(=O)C(C)(C)C)c1cccc(-c2cn(Cc3ccc(-c4nnc(C(F)F)o4)cn3)nn2)c1` is above or exactly 7.
stdout: satisfied
